# Test system: IGROV-1/CDDP
# Format: cell-based, human
# condition_context: IGROV-1/CDDP vs IGROV-1 (cisplatin resistance)
Non-standard residues stand in square brackets, D forms with d. Residues, ends and D or L forms follow the SMILES beside them. Bip = N[C@@H](Cc1ccc(-c2ccccc2)cc1)C(=O)O; dBip = N[C@H](Cc1ccc(-c2ccccc2)cc1)C(=O)O; Dip = N[C@H](C(=O)O)C(c1ccccc1)c1ccccc1
# Resistance index (RI) annotations
Just the number.

Recorded Resistance index (RI), per entry:
NCCCC[C@H](NC(=O)[C@H](Cc1c[nH]c2ccccc12)NC(=O)[C@H](CCCCN)NC(=O)[C@H](CCCCN)NC(=O)[C@@H](NC(=O)[C@H](Cc1c[nH]c2ccccc12)NC(=O)[C@H](CCCCN)NC(=O)[C@H](CCCCN)NC(=O)[C@@H](N)Cc1c[nH]c2ccccc12)C(c1ccccc1)c1ccccc1)C(N)=O [LTX-302, W-K-K-W-Dip-K-K-W-K-NH2] (H-WKKW[Dip]KKWK-NH2; N-terminus assumed) = 0.33
NCCCC[C@H](NC(=O)[C@H](Cc1c[nH]c2ccccc12)NC(=O)[C@H](Cc1c[nH]c2ccccc12)NC(=O)[C@H](CCCCN)NC(=O)[C@H](CCCCN)NC(=O)[C@H](Cc1c[nH]c2ccccc12)NC(=O)[C@H](Cc1ccc(-c2ccccc2)cc1)NC(=O)[C@H](CCCCN)NC(=O)[C@@H](N)CCCCN)C(N)=O [LTX-313, K-K-Bip-W-K-K-W-W-K-NH2] (H-KK[Bip]WKKWWK-NH2; N-terminus assumed) = 0.49
N=C(N)NCCC[C@H](NC(=O)[C@H](Cc1c[nH]c2ccccc12)NC(=O)[C@H](Cc1c[nH]c2ccccc12)NC(=O)[C@H](CCCNC(=N)N)NC(=O)[C@H](CCCNC(=N)N)NC(=O)[C@@H](NC(=O)[C@H](Cc1c[nH]c2ccccc12)NC(=O)[C@H](CCCNC(=N)N)NC(=O)[C@@H](N)CCCNC(=N)N)C(c1ccccc1)c1ccccc1)C(N)=O [LTX-320, R-R-W-Dip-R-R-W-W-R-NH2] (H-RRW[Dip]RRWWR-NH2; N-terminus assumed) = 0.49
NCCCC[C@H](NC(=O)[C@@H](NC(=O)[C@H](Cc1c[nH]c2ccccc12)NC(=O)[C@H](CCCCN)NC(=O)[C@H](CCCCN)NC(=O)[C@H](Cc1c[nH]c2ccccc12)NC(=O)[C@H](Cc1c[nH]c2ccccc12)NC(=O)[C@H](CCCCN)NC(=O)[C@@H](N)CCCCN)C(c1ccccc1)c1ccccc1)C(N)=O [LTX-315, K-K-W-W-K-K-W-Dip-K-NH2] (H-KKWWKKW[Dip]K-NH2) = 0.50

Now examine the next entry.
Field request: Resistance index (RI) | item: NCCCC[C@@H](N)C(=O)N[C@H](CCCCN)C(=O)N[C@H](Cc1ccc(-c2ccccc2)cc1)C(=O)N[C@H](Cc1c[nH]c2ccccc12)C(=O)N[C@H](CCCCN)C(=O)N[C@H](CCCCN)C(=O)N[C@H](Cc1c[nH]c2ccccc12)C(=O)N[C@H](Cc1c[nH]c2ccccc12)C(=O)N[C@H](CCCCN)C(N)=O [LTX-329, k-k-bip-w-k-k-w-w-k-NH2] (H-[dK][dK][dBip][dW][dK][dK][dW][dW][dK]-NH2; N-terminus assumed)
0.46
